Target: F1024-1-3 antibody (monoclonal antibody produced by hybridoma F1024-1-3, Accession No. FERM BP-7511)
Test: competition ELISA: 4-fold diluted serum mixed with 1 µg/mL peroxidase-labeled F1024-1-3, added to immobilised human CD14(1-356)
assay endpoint: inhibition ratio of binding of F1024-1-3 antibody to human CD14

Consider the binder rhesus monkey soluble type CD14 (in serum) (receptor) TTPEPCELDDEDFRCVCNFSEPHPDWSEAFQCVSAVEVEIRVGGLSLEPFLTRVDPDADPRQYADTIKALRVRRLTVGAAQVPAQLLVGALRVLAYSRLQELTLEDLEITGTMPPLPLEATGLALSSLRLHNVSWATGRSWLAELQQWLKPGLKVLSIAQAHSPAFSCEQVRAFPALTSLDLSDNPGLGERGLIAALCPHKFPALQNLALRNTGMETPTGVCAALAAAGVQPHSLDLSHNSLRATANPSAPRCMWSSALNSLNLSFAGLEQVPKGLPAKLRVLDLSCNRLNRRPRPDELPQVDNLALDGNPFLVPGTALPQEGSMN and give its measured inhibition ratio of binding of F1024-1-3 antibody to human CD14.
44%
